- target.system: Poly [ADP-ribose] polymerase 1 (Homo sapiens, UniProt P09874)
- Sequence (P09874 whole entry): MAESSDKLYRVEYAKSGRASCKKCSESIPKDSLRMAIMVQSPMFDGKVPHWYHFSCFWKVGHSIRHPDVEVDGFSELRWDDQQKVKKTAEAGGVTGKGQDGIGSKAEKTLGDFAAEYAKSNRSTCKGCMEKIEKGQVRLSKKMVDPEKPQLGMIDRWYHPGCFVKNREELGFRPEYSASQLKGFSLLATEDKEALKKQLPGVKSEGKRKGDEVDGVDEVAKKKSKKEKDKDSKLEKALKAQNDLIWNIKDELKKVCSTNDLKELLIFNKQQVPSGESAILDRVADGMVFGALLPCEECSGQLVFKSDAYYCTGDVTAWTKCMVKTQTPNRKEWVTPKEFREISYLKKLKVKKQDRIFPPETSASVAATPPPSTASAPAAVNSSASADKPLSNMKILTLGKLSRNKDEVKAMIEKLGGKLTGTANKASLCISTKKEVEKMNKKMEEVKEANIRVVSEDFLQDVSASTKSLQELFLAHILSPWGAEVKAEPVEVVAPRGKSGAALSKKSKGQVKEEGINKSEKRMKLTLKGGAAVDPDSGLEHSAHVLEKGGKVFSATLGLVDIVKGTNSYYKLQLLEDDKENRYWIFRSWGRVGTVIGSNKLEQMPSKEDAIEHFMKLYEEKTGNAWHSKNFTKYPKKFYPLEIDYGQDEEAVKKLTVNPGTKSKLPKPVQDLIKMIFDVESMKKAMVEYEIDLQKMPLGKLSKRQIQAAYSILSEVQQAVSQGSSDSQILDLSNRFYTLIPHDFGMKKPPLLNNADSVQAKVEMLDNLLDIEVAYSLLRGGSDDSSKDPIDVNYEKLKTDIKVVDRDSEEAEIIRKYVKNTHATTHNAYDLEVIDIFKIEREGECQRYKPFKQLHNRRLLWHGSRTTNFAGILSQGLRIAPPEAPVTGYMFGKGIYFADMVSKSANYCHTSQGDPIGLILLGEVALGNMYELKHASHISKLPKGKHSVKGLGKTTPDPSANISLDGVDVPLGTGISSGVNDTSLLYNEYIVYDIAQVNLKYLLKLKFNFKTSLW
pIC50: −log10 of the molar value.
Note to self: values exactly at 5 are met. So pIC50 at or above 5 is met, below is not met.

Examples with answers:
Is pIC50 for O=c1[nH]cnc2ccc([N+](=O)[O-])cc12 at or above 5?
not met

Is pIC50 for Cc1nc2cccc(F)c2c(=O)[nH]1 at or above 5?
met

Is pIC50 for Cc1nc(O)c2cccc(C)c2n1 at or above 5?
met

Is pIC50 for Cc1ccc2nc[nH]c(=O)c2c1 at or above 5?
not met

Is pIC50 for Cc1nc2cccc(C)c2c(=O)[nH]1 at or above 5?
met

Continuing:
Is pIC50 for Cc1nc2c(N)cccc2c(=O)[nH]1 at or above 5?
met

Is pIC50 for Nc1cccc2c(=O)[nH]cnc12 at or above 5?
met
